Test system: U251 CNS
Test: NCI-60 one-dose screen, 48 h
Conditions: 10 µM unless noted
Compounds without any hit were thinned out: in the full panel of roughly 83,000, 20% have a hit. Activity calls are given as the source filed them. The calls were made as follows: active = growth percent below 10; inactive = the rest.
Classes used: active, inactive

compound	target-or-system	label-class
C[C@@H](Oc1ccc(C(=O)NS(=O)(=O)C(C)(C)C)cc1C(F)(F)F)c1ccc(Oc2ccccc2)cn1	U251 CNS	inactive
CC(C)(C)c1ccc(OP(=S)(N/N=C/c2ccccc2O)Oc2ccc(C(C)(C)C)cc2)cc1	U251 CNS	inactive
Cc1cc(N(CCCNc2ccnc3cc(Cl)ccc23)Cc2ccco2)nc(Cl)n1	U251 CNS	inactive
Cn1c(/C(C#N)=C/c2ccc3ccccc3c2)cc2ccccc21	U251 CNS	inactive
CC(=O)N1N=C(c2ccc(C)cc2)CC1c1ccc(Oc2ccc(Br)cc2)cc1 (centres undefined)	U251 CNS	inactive
Cc1cc(N=O)cc(C(C)(C)C)c1O	U251 CNS	inactive
c1ccc2c(-c3nc(-c4c[nH]c5ncccc45)cs3)c[nH]c2c1	U251 CNS	inactive
COC(=O)[C@]12CC[C@@H](C)[C@H](C)[C@@H]1C1=CC[C@@H]3[C@@]4(C)C[C@@H](O)OC[C@](C)(C=O)C4C(=O)C[C@@]3(C)[C@]1(C)CC2 (some centres undefined)	U251 CNS	active
O=C1c2cccc3cccc(c23)C(=O)N1CC#Cc1ccc2c3c(cccc13)C(=O)N(CCN1CCNCC1)C2=O	U251 CNS	inactive
Cc1cc(C)n(Cc2cc(C(C)(C)C)cc(C(C)(C)C)c2)c(=O)c1C#N	U251 CNS	inactive
COc1ccc(-c2nc(Nc3ccc(-c4nc5ccccc5[nH]4)cc3)nc(N3CCOCC3)n2)cc1	U251 CNS	active
CC(C)=CCC/C(C)=C/CC/C(C)=C/CSC[C@H](NC(=O)CCCCCN1CCN(C)CC1)C(=O)NC1CCCCCC1	U251 CNS	inactive
C/C(Cc1ccc(Cl)cc1)=C(/c1ccc(Cl)cc1)c1ccc(OCCN2CCCC2)cc1	U251 CNS	inactive
Cc1ccc(N(CC(=O)Nc2ccc(S(=O)(=O)N3CCC(N4CCCC4)CC3)cc2)S(=O)(=O)c2ccc(Cl)cc2)cc1	U251 CNS	active

----------
Test system: OVCAR-3 ovarian
Assay: NCI-60 one-dose screen, 48 h
Conditions: 10 µM unless noted
Experimental: Growth inhibition of the OVCAR-3 human tumor cell line is measured as a screen for anti-cancer activity. Cells are grown in 96 well plates and exposed to the test compound for 48 hours. Compounds are tested at a single concentration, which is 10^-5 M for most compounds. The reported endpoint is percent growth (GI% or GIPRCNT), where numbers from 0 - 100% represent growth inhibition, and numbers from -100% - 0 represent cell death. For example, a value of 40 represents 60% growth inhibition. […]
About 83,000 compounds went through this panel and 20% of them were active in at least one assay; those are over-represented in the sample as a whole. The source made the active and inactive calls. How the source made its calls: active means growth percent below 10; inactive means the rest.
Outcomes: yes (1) for active, no (0) for inactive

molecule	label-class
Cn1cc(-c2csc(-c3cn(C(=O)OC(C)(C)C)c4ccc(Br)cc34)n2)c2cccnc21	no (0)
O=C(NCN1C(=O)c2cccc3cccc(c23)C1=O)N1CCC(Cc2ccccc2)CC1	no (0)
c1ccc(C2Cc3ccccc3C2=NC2CCCCC2)cc1 (configuration not stated)	no (0)
Cc1cc(C)nc(NC(N)=NCCc2ccccc2)n1	no (0)
COc1cc2ncnc(Nc3ccc(OCc4cccc(F)c4)c(Cl)c3)c2cc1NC(=O)C1CCCC1	no (0)
C/C(=N\NC(=O)C(C)SC(C)C(=O)N/N=C(\C)c1cccnc1)c1cccnc1 (configuration not stated)	no (0)
C=C1C(=O)O[C@H]2[C@H]1CC/C(COC(=O)NCc1cc3ccccc3[nH]1)=C\CC[C@@]1(C)O[C@@H]21	yes (1)
Nc1c(C(=O)Nc2c(Cl)cccc2Cl)sc2nc3c(cc12)CCCC3	no (0)
Cc1cc(Cl)c2c(N(C)C)cccc2n1	no (0)
COc1ccc2c(c1)c(-c1nc(-c3cn(C)c4ncccc34)cs1)cn2CCN	no (0)
COc1cccc(-c2nn(-c3ccccc3)cc2-c2ccnc(NCCNS(=O)(=O)c3ccc(C(F)(F)F)cc3)c2)c1	yes (1)
[B-][N+](CC)(CC)c1ccccc1	no (0)
N=C(N)c1ccc(-c2ccc(-c3cc(F)cc(F)c3)o2)nc1	no (0)
O=C(/C=C/c1cccc(O)c1)c1ccccc1O	no (0)
O=C1NC(=Nc2ccc(S(=O)(=O)Nc3nccs3)cc2)S/C1=C\c1coc2ccccc2c1=O	no (0)
OCC12CCCC(CO)(COC1)C2O (configuration not stated)	no (0)
Cn1cc(-c2csc(-c3cn(CCNC(=O)OC(C)(C)C)c4ccc(F)cc34)n2)c2cccnc21	no (0)
CC(=O)c1c(C)[nH]c(-c2nc3ccc(N4CCN(C)CC4)cc3[nH]2)c1-c1ccc(N(C)C)cc1	no (0)
CC1(C)CC[C@]2(C(=O)Nc3ccccn3)CC[C@]3(C)C(=CC[C@@H]4[C@@]5(C)C/C(=C/c6ccncc6)C(=O)C(C)(C)[C@@H]5CC[C@]43C)[C@@H]2C1	no (0)
O=S(=O)(NCCNc1cc(-c2cn(-c3ccccc3)nc2-c2cccc(O)c2)ccn1)c1ccc(F)cc1	no (0)
Cn1c(=O)c2c(nc(Br)n2CC(=O)Nc2ccc(F)cc2)n(C)c1=O	no (0)
C[C@H]1[C@H]2C3=CC[C@@H]4[C@@]5(C)C/C(=C/c6ccco6)C(=O)C(C)(C)[C@@H]5CC[C@@]4(C)[C@]3(C)CC[C@@]2(C(=O)N2CCOCC2)CC[C@@H]1C	no (0)
COc1ccc(-c2cc(-c3c(C)oc4cc5occc5c(OC)c4c3=O)nc(N)c2C#N)cc1OC	no (0)
COc1ccc(-c2nc3ncccn3c2-c2nc3ccc(Br)cc3[nH]2)cc1	no (0)
CC(=O)Cc1nsc(NC(=O)c2ccoc2COc2ccccc2)n1	no (0)
O=c1c(CNc2ccc(S(=O)(=O)Nc3ncccn3)cc2)coc2ccccc12	no (0)
Cc1ccc(S(=O)(=O)Nc2ccc(-c3cc(-c4cccc(F)c4)c(C#N)c(=O)[nH]3)cc2)cc1	no (0)
C/C(Cc1ccc(Cl)cc1)=C(/c1ccc(Cl)cc1)c1ccc(OCCN2CCCC2)cc1	no (0)
CCc1cccc(CC)c1NC(=O)c1sc2nc3c(cc2c1N)CCCC3	no (0)
COc1cccc(-c2nn(-c3ccccc3)cc2-c2ccnc(NCCCNS(=O)(=O)c3ccc(Cl)cc3)c2)c1	no (0)
COc1ccc(C(=O)c2cc(OC)c(OC)c(OC)c2)cc1/C=C/C(=O)c1cc(OC)c(OC)c(OC)c1	no (0)
COc1cc2nc(Cl)nc(Nc3cccc(C(=O)/C=C/c4ccc(Cl)cc4)c3)c2cc1OC	no (0)
